TARGET_DESC: CHUK (human)
ASSAY_TEXT: KINOMEscan competition binding
COND: compound 1.0 µM
TEST_READOUT: kinase still bound, per cent of control (%)
Just the number please, in %, no unit attached.

// below: answered compounds
{"columns": ["COMPOUND", "TEST_READOUT", "ENDPOINT_RESULT"],
 "data": [
  ["CN(C)C/C=C/C(=O)Nc1cccc(C(=O)Nc2ccc(Nc3nccc(-c4c(-c5ccccc5)nn5ccccc45)n3)cc2)c1", "kinase still bound, per cent of control", 93],
  ["Cc1cc(NC(=O)c2cccc(NC(=O)/C=C/CN(C)C)c2)ccc1Nc1nccc(-c2cccnc2)n1", "kinase still bound, per cent of control", 100],
  ["CN(C)C/C=C/C(=O)Nc1cccc(C(=O)Nc2ccc(Nc3nccc(/C(C#N)=C4\\Nc5ccccc5S4)n3)cc2)c1", "kinase still bound, per cent of control", 100]
]}

Now let's try a different one.
Per the record, `CN(C)C/C=C/C(=O)Nc1cccc(C(=O)Nc2ccc(Nc3nccc(-c4cccnc4)n3)cc2)c1` has kinase still bound, per cent of control of 53

* * *

TARGET_DESC: UniProt:P33981
Sequence (P33981 whole entry, looked up): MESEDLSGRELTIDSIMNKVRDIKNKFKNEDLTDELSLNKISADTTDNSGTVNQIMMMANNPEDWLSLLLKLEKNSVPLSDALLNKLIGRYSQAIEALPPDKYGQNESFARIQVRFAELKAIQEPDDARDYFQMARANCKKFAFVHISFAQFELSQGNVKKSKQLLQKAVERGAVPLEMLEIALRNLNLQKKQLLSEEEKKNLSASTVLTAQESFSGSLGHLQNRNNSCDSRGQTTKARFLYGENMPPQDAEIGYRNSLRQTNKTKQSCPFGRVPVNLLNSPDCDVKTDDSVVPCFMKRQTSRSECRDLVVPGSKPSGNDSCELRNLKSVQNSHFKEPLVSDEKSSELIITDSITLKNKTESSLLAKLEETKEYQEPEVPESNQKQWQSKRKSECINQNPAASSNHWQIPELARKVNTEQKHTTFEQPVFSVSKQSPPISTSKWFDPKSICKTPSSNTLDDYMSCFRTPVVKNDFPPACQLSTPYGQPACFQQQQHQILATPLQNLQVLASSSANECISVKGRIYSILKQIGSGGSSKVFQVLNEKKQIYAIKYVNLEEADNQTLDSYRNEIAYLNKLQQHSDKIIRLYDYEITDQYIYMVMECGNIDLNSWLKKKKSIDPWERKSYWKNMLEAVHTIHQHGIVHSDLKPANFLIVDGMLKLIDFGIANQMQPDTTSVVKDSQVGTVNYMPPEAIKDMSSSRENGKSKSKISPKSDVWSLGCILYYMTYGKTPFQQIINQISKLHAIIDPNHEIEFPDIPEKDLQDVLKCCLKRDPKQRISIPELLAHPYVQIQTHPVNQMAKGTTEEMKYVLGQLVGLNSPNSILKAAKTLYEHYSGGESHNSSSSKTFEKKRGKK
ASSAY_TEXT: KINOMEscan competition binding
COND: compound 1.0 µM
TEST_READOUT: kinase still bound, per cent of control (%)
The reply should be a number in %, with the unit left off.

{"columns": ["COMPOUND", "ENDPOINT_RESULT"],
 "data": [
  ["Cc1cc(NC(=O)c2cccc(NC(=O)/C=C/CN(C)C)c2)ccc1Nc1nccc(-c2cccnc2)n1", 46],
  ["CN(C)C/C=C/C(=O)Nc1cccc(C(=O)Nc2ccc(Nc3nccc(-c4c(-c5ccccc5)nn5ccccc45)n3)cc2)c1", 94],
  ["CN(C)C/C=C/C(=O)Nc1cccc(C(=O)Nc2ccc(Nc3nccc(/C(C#N)=C4\\Nc5ccccc5S4)n3)cc2)c1", 100]
]}

Now for the compound whose kinase still bound, per cent of control we want.
Lab entry: UniProt:P33981 assay, compound `CN(C)C/C=C/C(=O)Nc1cccc(C(=O)Nc2ccc(Nc3nccc(-c4cccnc4)n3)cc2)c1` , kinase still bound, per cent of control = 97

* * *

TARGET_DESC: STK24 (human)
ASSAY_TEXT: KINOMEscan competition binding
COND: compound 1.0 µM
# reported kinase still bound, per cent of control; entries follow
Please state the figure in %; there is no need to write the unit.

Field: example entries. Status: answers known.
{"columns": ["COMPOUND", "DISPLAY_UNIT", "kinase still bound, per cent of control"],
 "data": [
  ["CN(C)C/C=C/C(=O)Nc1cccc(C(=O)Nc2ccc(Nc3nccc(/C(C#N)=C4\\Nc5ccccc5S4)n3)cc2)c1", "%", 100],
  ["CN(C)C/C=C/C(=O)Nc1cccc(C(=O)Nc2ccc(Nc3nccc(-c4c(-c5ccccc5)nn5ccccc45)n3)cc2)c1", "%", 88],
  ["Cc1cc(NC(=O)c2cccc(NC(=O)/C=C/CN(C)C)c2)ccc1Nc1nccc(-c2cccnc2)n1", "%", 79]
]}

Kindly consider the entry below.
In plain terms, `CN(C)C/C=C/C(=O)Nc1cccc(C(=O)Nc2ccc(Nc3nccc(-c4cccnc4)n3)cc2)c1` has a documented kinase still bound, per cent of control of 86

* * *

TARGET_DESC: JAK1 JH2 pseudokinase (human)
ASSAY_TEXT: KINOMEscan competition binding
COND: compound 1.0 µM
TEST_READOUT: kinase still bound, per cent of control (%)
The figure you give is taken to be in %; do not add the unit.

Example results:
{"columns": ["COMPOUND", "ENDPOINT_RESULT"],
 "data": [
  ["CN(C)C/C=C/C(=O)Nc1cccc(C(=O)Nc2ccc(Nc3nccc(-c4c(-c5ccccc5)nn5ccccc45)n3)cc2)c1", 79],
  ["CN(C)C/C=C/C(=O)Nc1cccc(C(=O)Nc2ccc(Nc3nccc(-c4cccnc4)n3)cc2)c1", 8.6],
  ["Cc1cc(NC(=O)c2cccc(NC(=O)/C=C/CN(C)C)c2)ccc1Nc1nccc(-c2cccnc2)n1", 91]
]}

molecule `CN(C)C/C=C/C(=O)Nc1cccc(C(=O)Nc2ccc(Nc3nccc(/C(C#N)=C4\Nc5ccccc5S4)n3)cc2)c1` , kinase still bound, per cent of control observed: 81
